Examples of compounds with documented pKi follow.
target: Protein kinase C alpha type (Homo sapiens)
Just so you know, pKi here is -log10 of the concentration in molar units; reply with that number alone.

Take a look at these entries with their results.
{"columns": ["compound", "experimental.readout", "observed.measurement"],
 "data": [
  ["COC(=O)/C=C1/C[C@H]2C[C@]3(O)O[C@H](C[C@@H](O)CC(=O)O[C@@H]([C@@H](C)O)C[C@@H]4C/C(=C/C(=O)OC)C[C@@](O)(O4)C(C)(C)/C=C/[C@@H](C1)O2)C[C@H](OC(=O)C(C)(C)C)C3(C)C [BRYOSTATIN 18]", "pKi", 8.32],
  ["COC(=O)/C=C1/C[C@H]2C[C@]3(O)O[C@H](C[C@@H](O)CC(=O)O[C@@H]([C@@H](C)O)C[C@@H]4C/C(=C\\C(=O)OC)C[C@@](O)(O4)C(C)(C)/C=C/[C@@H](C1)O2)C[C@H](OC(=O)C(C)(C)C)C3(C)C [BRYOSTATIN 10]", "pKi", 8.81],
  ["COC(=O)/C=C1\\C=C2O[C@@H](C1)C[C@H]([C@@H](C)O)OC(=O)C[C@H](O)C[C@@H]1C[C@H](OC(=O)C(C)(C)C)C(C)(C)[C@](O)(C[C@@H]3C/C(=C/C(=O)OC)C[C@H](/C=C/C2(C)C)O3)O1 [BRYOSTATIN 17]", "pKi", 6.73]
]}

Proceeding to the next compound to report its pKi.
Provide value of pKi for this record tested with Protein kinase C alpha type (Homo sapiens): COC(=O)/C=C1/C[C@H]2C[C@]3(O)O[C@H](C[C@@H](O)CC(=O)O[C@@H]([C@@H](C)O)C[C@@H]4C/C(=C\C(=O)OC)C=C(O4)C(C)(C)/C=C/[C@@H](C1)O2)C[C@H](OC(=O)C(C)(C)C)C3(C)C [BRYOSTATIN 16]
6.93
